target: T1, Rhesus macaque CD4-HIS (Acro Biosystems, Cat. CD4-C52H7) (rhesus macaque, UniProt P16003 26-390); assay: BLI (Octet Red384); Ab on anti-mouse Fc (AMC) sensor; rhesus CD4-HIS 100/50/25 nM; global 1:1 fit;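 further: antibodies loaded at 10 µg/mL, an unrelated mouse-derived antibody served as internal reference, curves fit over association and dissociation phases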
T1 construct: Bought reagent; also called Rhesus CD4; rhesus CD4-HIS; not shown: His tag
T1 sequence (P16003 26-390 limits assumed): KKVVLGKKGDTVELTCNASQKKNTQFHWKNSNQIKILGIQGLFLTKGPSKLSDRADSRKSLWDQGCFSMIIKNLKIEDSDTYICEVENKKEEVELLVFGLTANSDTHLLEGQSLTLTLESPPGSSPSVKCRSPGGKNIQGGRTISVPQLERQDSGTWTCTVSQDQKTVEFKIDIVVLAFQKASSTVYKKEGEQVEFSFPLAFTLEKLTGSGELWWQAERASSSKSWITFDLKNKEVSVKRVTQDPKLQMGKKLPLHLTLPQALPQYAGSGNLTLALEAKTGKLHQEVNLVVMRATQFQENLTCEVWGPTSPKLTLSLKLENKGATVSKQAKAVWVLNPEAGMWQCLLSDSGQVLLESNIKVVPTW
MEASURED_PROPERTY: kon (M⁻¹ s⁻¹)
One number for each entry, in M⁻¹ s⁻¹.

Use the examples below as a reference point.
75110_12H19A (antibody, V domains shown, Tested as antibody purified from AlivaMab Mouse hybridoma supernatant (human variable domains, kappa; mouse Fc, captured on anti-mouse IgG Fc sensors); also called ADS75110 purified AMM Ab) VH: EVQLVESGGGLVQPGGSLRLSCAASGFTFSSYWMSWVRQAPGQGLEWVANINEDGNEKYHVDSVKGRLTISRDNAKNSLYLQMNSLRGVDTAVYFCAREGGQWLALDYWGQGALVTVSS VL: DIQMTQSPSSVSASVGDRVSITCRASQGISSWLAWYQQKPGKAPKLLIYGASGLQSGVPSRFSGSGSGTDFTLTISSLQPEDFATYYCQQANSFPWTFGQGTKVEIK    190000
75110_06K03A (antibody, V domains shown, Tested as antibody purified from AlivaMab Mouse hybridoma supernatant (human variable domains, kappa; mouse Fc, captured on anti-mouse IgG Fc sensors); also called ADS75110 purified AMM Ab) VH: QVQLQESGPGLVKPSETLSLTCTVSGGSISTYYWSWIRQPAGKGLEWIGRINTSGSTTYNPSLKSRVTMSVDTSKNQFSLKLSSVTAADTAVYYCARELERYYYYGMDVWGQGTTVTVSS VL: DIQMTQSPSSLSASVGDRVTITCQASQDISNYLNWYQQKPGKAPKLLIYYASILETGVPSRFSGSGSGTDFTFTISSLQPEDIATYYCQQYDSLPLTFGGGTKVEIK    45000
75110_06D16A (antibody, V domains shown, Tested as antibody purified from AlivaMab Mouse hybridoma supernatant (human variable domains, kappa; mouse Fc, captured on anti-mouse IgG Fc sensors); also called ADS75110 purified AMM Ab) VH: QVQLQQWGAGLLKPSETLSLTCAVYGGSFSGYYWSWIRQPPGKGLEWIGEINHSGSTNYNPSLKSRVTISVVTSKNQFSLKLSSVTAADTAVYYCARVLNWFDPWGQGTLVTVSS VL: DIQMTQSPSSVSASVGDRVTITCRASQDIADWLAWYQQKPGKAPKLLIYAASSFQSGVPSRFSGSGSGTDFTLTISSLQPEDFATYFCQQANSFPYTFGQGTKLEIK    91000
75110_07H07A (antibody, V domains shown, Tested as antibody purified from AlivaMab Mouse hybridoma supernatant (human variable domains, kappa; mouse Fc, captured on anti-mouse IgG Fc sensors); also called ADS75110 purified AMM Ab) VH: EVQVVESGGGLVQPGGSLRLSCAASGFTFSSYWMSWVRQAPGKGLEWVANIKEEGSEKYYVDSVKGRFTISRDNAKNSLYLQMNSLRAEDTAVYYCVREGGQWLALDYWGQGTLVTVSS VL: DIQMTQSPSSVSGSVGDRVTITCRASQGISSWLAWYQQKPGKAPKLLIFGASSLQSGVPSRFSGSGSGTDFTLTISSLQPEDFATYYCQQANSFPWTFGQGTKVQIK    94000
75110_10K21A (antibody, V domains shown, Tested as antibody purified from AlivaMab Mouse hybridoma supernatant (human variable domains, kappa; mouse Fc, captured on anti-mouse IgG Fc sensors); also called ADS75110 purified AMM Ab) VH: EVQLVESGGGLVQPGGSLRLSCAASGFTFSSYWMTWVRQAPGKGLEWVANIKQDGSEKYYVDSVKGRFTISRDNAKNSLYLQMNSLRAEDTAVYYCVRDRYDALDIWGQGTMVTVSS VL: AIQMTQSPSSLSASVGDRVTITCRASQGIRNDLNWYQQKPGKAPKLLIYAASSLQSGVPSRFSGSGSGTDFTLTISSLQAEDFATYYCLKDYNYPYTFGQGTKLEIK    160000
75110_12C19A (antibody, V domains shown, Tested as antibody purified from AlivaMab Mouse hybridoma supernatant (human variable domains, kappa; mouse Fc, captured on anti-mouse IgG Fc sensors); also called ADS75110 purified AMM Ab) VH: EVQLVESGGGLVQPGGSLRLSCAASGFTFSSYWMSWVRQAPGKGLEWVANIKEDGSDKYYVDSVKGRFTISRDNAKNSLYLQMNSLRAEDTAVHYCVREGGQWLALDYWGQGTLVTVSS VL: DIQMTQSPSSVSGSVGDRVTITCRASQGISSWLAWYQQKPGKAPKLLIYGASSLQSGVPSRFSGSGSGTDFTLTISSLQPEDFVTYYCQQANSFPWTFGQGTKVEIK    240000
75110_12K21A (antibody, V domains shown, Tested as antibody purified from AlivaMab Mouse hybridoma supernatant (human variable domains, kappa; mouse Fc, captured on anti-mouse IgG Fc sensors); also called ADS75110 purified AMM Ab) VH: QVQLQQWGAGLLKPSETLSLTCAVSGGSFSGYYWSWIRQPPGKGLEWIGEINHSGSTNCNPSLKSRVTISVDTSNNQFSLKLSSVTAADTAVYYCARVLNYFDYWGQGTLVTVSS VL: DIQMTQSPSSVSASVGDRVTITCRASPDIANWLAWYQQKPGKAPELLIYAASSLQSGVPSRFSGSGSGTDFTLTISSLQPEDFATYFCQQANSFPLTFGGGTKVESK    270000
75110_06C16A (antibody, V domains shown, Tested as antibody purified from AlivaMab Mouse hybridoma supernatant (human variable domains, kappa; mouse Fc, captured on anti-mouse IgG Fc sensors); also called ADS75110 purified AMM Ab) VH: QVQLQESGPGLVTPSETLSLSCTVSGGSISDYYWSWIRQPGGKGLEWIGRIYSSGSTNYNPSLKSRVTMSVDTSKNQFSLKLSSVTAADTAVYFCARDREDYYYYGMDVWGQGTTVTVSS VL: DIQMTQSPSSLSASVGDRVTITCQASHDISNYLNWYQQKPGKAPKLLIYAASNLETGVPSRFSGSGSGTDFSFTISSLQPEDIATYYCQQYDHLPLTFGGGTKVEIK    73000
75110_08G08A (antibody, V domains shown, Tested as antibody purified from AlivaMab Mouse hybridoma supernatant (human variable domains, kappa; mouse Fc, captured on anti-mouse IgG Fc sensors); also called ADS75110 purified AMM Ab) VH: QVQLQESGPGLVKPSETLSLTCSVSGGSISTYYWSWIRQPAGKGLEWIGRICTTENTNYNPSLKSRVTMSIDSSKNQFSLKLSSVTAADTAVYYCARDLERLNYYGMDVWGQGATVTVSS VL: DIQMTQSPSSLSASVGDRVTITCQASQDISNYLNWYQQKPGIAPKLLIYDASNLETGVPSRFSGSGSGTDFTFTISSLQPEDIATYYCQQYDSLPITFGQGTRLEIK    220000

The record that follows has no kon shown yet.
QUERY: Consider the binder shown here: 75110_07J02A (antibody, V domains shown, Tested as antibody purified from AlivaMab Mouse hybridoma supernatant (human variable domains, kappa; mouse Fc, captured on anti-mouse IgG Fc sensors); also called ADS75110 purified AMM Ab) VH: EVQLVESGGGLVQPGGSLRLSCAASGFTFSSYWMSWVRQAPGKGLEWVANIKEDGSEKYYVDSVKGRFTISRDNAKNSLYLQMNSLRAEDTAVYYCARDGSYSGYGMDVWGQGTTVTVSS VL: AIQMTQSPSSLSASVGDRVTITCRASQGIRNDLGWYQQKPGKAPKLLIYAASSLQSGVPSRFSGRGSGTDFALTISSLQPEDFATYYCLLDYNYPYTFGQGTRLEIK What is its recorded kon?
RESULT: 150000
